assay.target: enzymatically active free PSA (Homo sapiens)
Construct: required for 50% cleavage of the noted oligopeptides with enzymatically active free PSA
Sequence (P07288 25-261): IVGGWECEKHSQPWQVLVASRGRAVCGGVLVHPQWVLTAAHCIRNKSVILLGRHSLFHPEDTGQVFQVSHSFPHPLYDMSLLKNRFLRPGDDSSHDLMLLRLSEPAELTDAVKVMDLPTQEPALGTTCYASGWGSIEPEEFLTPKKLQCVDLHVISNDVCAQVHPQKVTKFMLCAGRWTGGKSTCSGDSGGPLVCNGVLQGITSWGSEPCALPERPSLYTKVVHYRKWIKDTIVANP
method.summary: Recognition (cleavage) of oligopeptide-doxorubicin conjugates by free PSA, HPLC
Assay type: biochemical
conditions.used: DOX conjugate; PSA digestion buffer pH7.4, 140 mM NaCl; molar ratio to PSA 100 to 1
Non-standard residues stand in square brackets, D forms with d. Residues, ends and D or L forms follow the SMILES beside them. *: point of attachment. Doxorubicin(3'-N) = COc1cccc2c1C(=O)c1c(O)c3c(c(O)c1C2=O)C[C@@](O)(C(=O)CO)C[C@@H]3O[C@H]1C[C@H](N*)[C@H](O)[C@H](C)O1; X2 = COCCOCCOCCOCCOCCOCCOCCOCCOCCOCCOCCOCCOCCOCCOCCOCCOCC(=O)*; Glyceroyl(2S) = O=C([C@@H](O)CO)*; Glyceroyl(2R) = O=C([C@H](O)CO)*; hArg = N=C(N)NCCCC[C@H](N)C(=O)O; 3Pal = N[C@@H](Cc1cccnc1)C(=O)O; Chg = N[C@H](C(=O)O)C1CCCCC1
Each entry below lists one item and its recorded Time to 50% Substrate Cleavage by York PSA value.
measure: Time to 50% Substrate Cleavage by York PSA (min)

- compound: "COc1cccc2c1C(=O)c1c(O)c3c(c(O)c1C2=O)C[C@@](O)(C(=O)CO)C[C@@H]3O[C@H]1C[C@H](NC(=O)[C@H](CC(C)C)NC(=O)[C@H](CO)NC(=O)[C@H](CCC(N)=O)NC(=O)[C@@H](NC(=O)[C@H](CO)NC(=O)[C@H](CO)NC(=O)[C@H](CCCCNC(=N)N)NC(=O)[C@H](O)CO)C2CCCCC2)[C@H](O)[C@H](C)O1 ({Glyceroyl(2R)}-[hArg]SS[Chg]QSL-{Doxorubicin(3'-N)})"
  assay.target: "enzymatically active free PSA (Homo sapiens)"
  reported.measurement: 12
- compound: "COCCOCCOCCOCCOCCOCCOCCOCCOCCOCCOCCOCCOCCOCCOCCOCCOCC(=O)N[C@@H](CO)C(=O)N[C@@H](CCCCNC(=N)N)C(=O)N[C@@H](Cc1ccc(O)cc1)C(=O)N[C@@H](CCC(N)=O)C(=O)N[C@@H](CO)C(=O)N[C@@H](CC(C)C)C(=O)N[C@H]1C[C@H](O[C@H]2C[C@](O)(C(=O)CO)Cc3c(O)c4c(c(O)c32)C(=O)c2c(OC)cccc2C4=O)O[C@@H](C)[C@H]1O [PEG(16)-SHomoRYQ-SL-DOX (3′), PEG(16)-SerhArgTyrGln-SerLeu-DOX (3′)] (X2-S[hArg]YQSL-{Doxorubicin(3'-N)})"
  assay.target: "enzymatically active free PSA (Homo sapiens)"
  reported.measurement: 65
- compound: "COc1cccc2c1C(=O)c1c(O)c3c(c(O)c1C2=O)C[C@@](O)(C(=O)CO)C[C@@H]3O[C@H]1C[C@H](NC(=O)[C@H](CC(C)C)NC(=O)[C@H](CO)NC(=O)[C@H](CCC(N)=O)NC(=O)[C@@H](NC(=O)[C@H](CO)NC(=O)[C@H](CO)NC(=O)[C@H](CO)NC(=O)[C@@H](O)CO)C2CCCCC2)[C@H](O)[C@H](C)O1 ({Glyceroyl(2S)}-SSS[Chg]QSL-{Doxorubicin(3'-N)})"
  assay.target: "enzymatically active free PSA (Homo sapiens)"
  reported.measurement: 25
- compound: "COc1cccc2c1C(=O)c1c(O)c3c(c(O)c1C2=O)C[C@@](O)(C(=O)CO)C[C@@H]3O[C@H]1C[C@H](NC(=O)[C@H](CC(C)C)NC(=O)[C@H](CO)NC(=O)[C@H](CCC(N)=O)NC(=O)[C@@H](NC(=O)[C@H](CCCCNC(=N)N)NC(=O)[C@H](CO)NC(=O)[C@H](O)CO)C2CCCCC2)[C@H](O)[C@H](C)O1 ({Glyceroyl(2R)}-S[hArg][Chg]QSL-{Doxorubicin(3'-N)})"
  assay.target: "enzymatically active free PSA (Homo sapiens)"
  reported.measurement: 65
- compound: "COc1cccc2c1C(=O)c1c(O)c3c(c(O)c1C2=O)C[C@@](O)(C(=O)CO)C[C@@H]3O[C@H]1C[C@H](NC(=O)[C@H](CC(C)C)NC(=O)[C@H](CO)NC(=O)[C@H](CCC(N)=O)NC(=O)[C@@H](NC(=O)[C@H](CO)NC(=O)[C@H](CO)NC(=O)[C@H](Cc2cccnc2)NC(=O)[C@H](O)CO)C2CCCCC2)[C@H](O)[C@H](C)O1 ({Glyceroyl(2R)}-[3Pal]SS[Chg]QSL-{Doxorubicin(3'-N)})"
  assay.target: "enzymatically active free PSA (Homo sapiens)"
  reported.measurement: 12
